- procedure-text: in vitro
pIC50: −log10 of the molar value. Structures can show the parent of a compound that is named as a salt.
quantity-kind: pIC50

Example results:
- compound: "CONC(=N)c1ccc2oc(CCCc3cc4cc(C(=N)NOC)ccc4o3)cc2c1"
  pIC50: "< 3.80"
- compound: "N=C(NO)c1ccc(-c2cc3cc(C(=N)NO)ccc3o2)cc1"
  pIC50: "< 3.63"

Now for another entry.
I would be grateful if you could share the reported pIC50 for CC(C)NC(=N)c1ccc2oc(CCCCc3cc4cc(C(=N)NC(C)C)ccc4o3)cc2c1 [Compound 21, dihydrochloride] . < 3.79

* * *

Counter-ions that a name gives are not always drawn.
quantity-kind: melting point

Example results:
- compound: "N=C(NO)c1ccc2oc(CCCCCc3cc4cc(C(=N)NO)ccc4o3)cc2c1 (as salt: HCl) [Compound 192]"
  melting point: "120 °C (dec.)"
- compound: "CC(C)NC(=N)c1ccc(OCCCCOc2ccc(-c3cc4cc(C(=N)NC(C)C)ccc4o3)cc2)cc1.Cl.Cl [Compound 48]"
  melting point: "305 °C"
- compound: "Cl.Cl.N=C(N)c1ccc(OCCCCOc2cccc(-c3cc4ccc(C(=N)N)cc4o3)c2)cc1 [Compound 59]"
  melting point: "278 to 280 °C"
- compound: "Cl.Cl.c1cc2cc(CCCc3cc4ccc(C5=NCCN5)cc4o3)oc2cc1C1=NCCN1 [Compound 19]"
  melting point: "> 300 °C (dec.)"
- compound: "Cl.Cl.N=C(N)c1ccc(OCCCCCOc2ccc(-c3cc4ccc(C(=N)N)cc4o3)cc2)cc1 [Compound 74]"
  melting point: "285 °C (dec.)"
- compound: "Cl.Cl.N=C(N)c1ccc(OCCCCCCOc2cccc(-c3cc4cc(C(=N)N)ccc4o3)c2)cc1 [Compound 41]"
  melting point: "208 to 210 °C"
- compound: "N=C(NO)c1ccc(OCCCCCOc2ccc(-c3cc4cc(C(=N)NO)ccc4o3)cc2)cc1 (as salt: HCl) [Compound 183]"
  melting point: "202 °C (dec.)"

Now for another entry.
I would be grateful if you could share the reported melting point for Cl.Cl.N=C(N)c1ccc(OCCCOc2ccc(-c3cc4cc(C(=N)N)ccc4o3)cc2)cc1 [Compound 44] . 287 to 289 °C

* * *

- Tested on: Trypanosoma brucei rhodesiense
- procedure-text: Anti-protozoan data: T.b.r. IC50
- Format: cell-based
- condition-details: Tables VI(a), VI(c), read-out: T.b.r. IC50
Provide the recorded pIC50 for the entries that follow.
Numbers only, as −log10 of the molar value.

- molecule: "CC(C)NC(=N)c1ccc(OCCCOc2ccc(-c3cc4cc(C(=N)NC(C)C)ccc4o3)cc2)cc1.Cl.Cl [Compound 45, dihydrochloride]"
  pIC50: 7.39
- molecule: "N=C(NO)c1ccc2cc(CCCCCc3cc4ccc(C(=N)NO)cc4o3)oc2c1 [Compound 184]"
  pIC50: 5.66
- molecule: "Cl.Cl.N=C(N)c1ccc(OCCCOc2cccc(-c3cc4ccc(C(=N)N)cc4o3)c2)cc1 [Compound 56, dihydrochloride]"
  pIC50: 6.49
- molecule: "CONC(=N)c1ccc2cc(CCCCCc3cc4ccc(C(=N)NOC)cc4o3)oc2c1 [Compound 187]"
  pIC50: 4.86
- molecule: "N=C(NO)c1ccc(OCCCOc2ccc(-c3cc4cc(C(=N)NO)ccc4o3)cc2)cc1 [Compound 182]"
  pIC50: 5.87
- molecule: "Cl.Cl.N=C(N)c1ccc(OCCCCCCOc2ccc(-c3cc4cc(C(=N)N)ccc4o3)cc2)cc1 [Compound 53, dihydrochloride]"
  pIC50: 6.43
- molecule: "CC(C)NC(=N)c1ccc(OCCCCCCOc2ccc(-c3cc4cc(C(=N)NC(C)C)ccc4o3)cc2)cc1.Cl.Cl [Compound 54, dihydrochloride]"
  pIC50: 6.68
- molecule: "c1cc(OCCCCCCOc2ccc(C3=NCCN3)cc2)cc(-c2cc3cc(C4=NCCN4)ccc3o2)c1 [Compound 43]"
  pIC50: 6.00

Kindly give each listed record's pIC50.
1. Cl.Cl.N=C(N)c1ccc(OCCCCOc2ccc(-c3cc4ccc(C(=N)N)cc4o3)cc2)cc1 [Compound 71, dihydrochloride]
2. Cl.Cl.c1cc(C2=NCCN2)ccc1OCCCCCOc1ccc(-c2cc3cc(C4=NCCN4)ccc3o2)cc1 [Compound 52, dihydrochloride]
3. Cl.Cl.c1cc(OCCCCCOc2ccc(C3=NCCN3)cc2)cc(-c2cc3cc(C4=NCCN4)ccc3o2)c1 [Compound 40, dihydrochloride]

1. 5.98
2. 6.47
3. 6.22

Kindly give each listed record's pIC50.
1. Cl.Cl.c1cc(OCCCCOc2ccc(C3=NCCN3)cc2)cc(-c2cc3ccc(C4=NCCN4)cc3o2)c1 [Compound 61, dihydrochloride]
2. CC(C)NC(=N)c1ccc(OCCCCOc2cccc(-c3cc4ccc(C(=N)NC(C)C)cc4o3)c2)cc1.Cl.Cl [Compound 60, dihydrochloride]
3. CC(C)NC(=N)c1ccc(OCCCOc2cccc(-c3cc4cc(C(=N)NC(C)C)ccc4o3)c2)cc1.Cl.Cl [Compound 33, dihydrochloride]
4. CC(C)NC(=N)c1ccc(OCCCCCOc2cccc(-c3cc4cc(C(=N)NC(C)C)ccc4o3)c2)cc1.Cl.Cl [Compound 39, dihydrochloride]
5. CC(C)NC(=N)c1ccc(OCCCCCCOc2cccc(-c3cc4ccc(C(=N)NC(C)C)cc4o3)c2)cc1.Cl.Cl [Compound 66, dihydrochloride]

1: 5.54; 2: 6.03; 3: 6.26; 4: 6.34; 5: 6.38

Kindly give each listed record's pIC50.
1. Cl.Cl.c1cc(OCCCOc2ccc(C3=NCCN3)cc2)cc(-c2cc3ccc(C4=NCCN4)cc3o2)c1 [Compound 58, dihydrochloride]
2. Cl.Cl.N=C(N)c1ccc(OCCCCOc2ccc(-c3cc4cc(C(=N)N)ccc4o3)cc2)cc1 [Compound 47, dihydrochloride]

5.96
6.79
